Origin of the recorded values: patent US11318134B2

target: Bcl-XL (Homo sapiens (Human), UniProt Q07817); experiment: Bcl-XL HTRF assay (FAM-Bad peptide); type: binding; conditions: HTRF, 3 nM Bcl-XL, 40 nM FAM-Bad peptide; read-out: Bc1-XL IC50
Sequence (Q07817 whole entry): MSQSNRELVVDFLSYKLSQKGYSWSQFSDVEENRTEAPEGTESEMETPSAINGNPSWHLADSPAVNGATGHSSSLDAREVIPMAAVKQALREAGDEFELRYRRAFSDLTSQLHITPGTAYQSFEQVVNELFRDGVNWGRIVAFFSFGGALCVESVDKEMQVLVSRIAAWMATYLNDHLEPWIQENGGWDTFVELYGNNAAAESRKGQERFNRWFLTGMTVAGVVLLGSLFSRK
Could you please report measured IC50 for the items listed next?

Would you please look over these solved cases?
Which IC50 reading was recorded for the compound CC1(C)CCC(C23CC(Cl)(C2)C3)=C(CN2CCN(c3ccc(C(=O)NS(=O)(=O)c4ccc(N[C@H](CCN5CCC(O)CC5)CSc5ccccc5)c(S(=O)(=O)C(F)(F)F)c4)cc3)CC2)C1 ? ≤ 10 nM

Queued: CN(CCO)CC[C@H](CSc1ccccc1)Nc1ccc(S(=O)(=O)NC(=O)c2ccc(N3CCN(CC4=C(C56CC(C(F)F)(C5)C6)CC(C)(C)CC4)CC3)cc2)cc1S(=O)(=O)C(F)(F)F ≤ 10 nM

Queued: CC1(C)CCC(CN2CCN(c3ccc(C(=O)NS(=O)(=O)c4ccc(NC[C@H]5CC[C@](C)(O)CC5)c([N+](=O)[O-])c4)c(Oc4cnc5[nH]ccc5c4)c3)CC2)=C(C23CC(C(F)F)(C2)C3)C1 10 to 100 nM

Queued: CC1(C)CCC(CN2CCN(c3ccc(C(=O)NS(=O)(=O)c4ccc(N[C@H](CCN5CCOCC5)CSc5ccccc5)c(S(=O)(=O)C(F)(F)F)c4)cc3)CC2)=C(C23CC(C(F)F)(C2)C3)C1 ≤ 10 nM

Queued: CN(C)C1CCN(CC[C@H](CSc2ccccc2)Nc2ccc(S(=O)(=O)NC(=O)c3ccc(N4CCN(CC5=C(C67CC(C(F)F)(C6)C7)CC(C)(C)CC5)CC4)cc3)cc2S(=O)(=O)C(F)(F)F)CC1 ≤ 10 nM

Now let's try a different one.
Which IC50 reading was recorded for the compound O=C(NS(=O)(=O)c1ccc(N[C@H](CCN2CCC(O)CC2)CSc2ccccc2)c(S(=O)(=O)C(F)(F)F)c1)c1ccc(N2CCN(CC3=C(C45CC(C(F)F)(C4)C5)CC4(CCC4)CC3)CC2)cc1 ? ≤ 10 nM
